Data origin: ChEMBL document CHEMBL4033783

test system: SW-620; assay: Antiproliferative activity against human SW620 cells; type: functional
property-label: GI25 (nM)
Give bare numbers, in nM.

Asked: Return reported GI25. Input compound: "NC(=O)Nc1sc(-c2ccccc2)cc1C(=O)N[C@H]1CCCNC1"
Given back: 420

Asked: State its GI25: "NC(=O)c1cnc(N[C@H]2CCCNC2)c2cc(-c3ccccc3)sc12"
Given back: 490

Asked: Please report the measured GI25 for "NC(=O)c1cnc(N[C@H]2CCCNC2)c2cc(-c3cccc(F)c3)sc12"
Given back: 420

Now consider a different compound.
Asked: In one line, give reported GI25 of the entry "C[C@H]1NCCC[C@@H]1Nc1ncc(C(N)=O)c2sc(-c3ccccc3)cc12" .
Given back: 360
